Test system: Trypanosoma cruzi
protocol.summary: Antimicrobial activity against Trypanosoma cruzi
Format: functional, organism-based
conditions.used: Trypanosoma cruzi
The following compounds are shown together with reported IC50 values.
Put down the number, then write its unit next to it.

Cn1c2nc3ccc(C#N)cc3c-2cc2cc(F)ccc21: 32 µM

Tell me its IC50 given [N-]=[N+]=NCCOc1ccc(Oc2ccccc2)cc1 as the entry.
70 µM

Tell me its IC50 given CC(=O)N1CCN(c2ccc(OCC3COC(Cn4ccnc4)(c4ccc(Cl)cc4Cl)O3)cc2)CC1 (stereo not given) as the entry.
3 µM

Tell me its IC50 given Clc1ccc2[nH]c3nc4ccccc4c-3cc2c1 as the entry.
32 µM

Tell me its IC50 given CCC(=O)N1CCCCC1[C@](C)(O)[C@H]1CC[C@H]2[C@@H]3CC[C@H]4C[C@@H](O)CC[C@]4(C)[C@H]3CC[C@@]21C (stereo not given in full) as the entry.
65 µM

Tell me its IC50 given [N-]=[N+]=NC(CO)COc1ccc(Oc2ccccc2)cc1 (stereo not given) as the entry.
70 µM

----------
Test system: Trypanosoma brucei
protocol.summary: Antimicrobial activity against Trypanosoma brucei
Assay type: functional, organism-based
Field: label. Allowed values: Criterion met (IC50 < 2 µM) or Criterion not met (IC50 >= 2 µM).

Observe how each entry below is paired with its result.
Cn1c2nc3ccc(C#N)cc3c-2cc2ccccc21: Criterion not met
CCCC1(CCC)CC(C)(C)CC(C)(N)C1 (stereo unspecified): Criterion met
COc1cccc2c1cc1c3ccccc3nc-1n2C: Criterion met
Cn1c2nc3ccccc3c-2cc2ccc(Cl)cc21: Criterion not met
Fc1ccc2[nH]c3nc4ccccc4c-3cc2c1: Criterion not met
Cn1c2nc3ccccc3c-2cc2cc([N+](=O)[O-])ccc21: Criterion met

--- query ---
Regarding COc1ccc2[nH]c3nc4ccccc4c-3cc2c1 , kindly confirm whether its IC50 is beneath 2 µM.
Criterion not met

----------
The following compounds are shown together with reported pIC50 values.
System: Trypanosoma cruzi
protocol.summary: Antimicrobial activity against Trypanosoma cruzi
Format: functional, organism-based
conditions.used: Trypanosoma cruzi
Friendly reminder that pIC50 comes from taking -log10 of the concentration in mol/L.

Some entries whose results are on file:
Cn1c2nc3ccccc3c-2cc2cc(Br)ccc21: 4.49
C[C@]12CC[C@H](O)C[C@@H]1CC[C@@H]1[C@@H]2CC[C@@]2(C)[C@H]1CC[C@@H]2[C@@](C)(O)c1ccncc1: 6.00
O=C(/C=C/C=C/c1ccc2c(c1)OCO2)OC1CCCCC1: 4.08
C[C@]12CC[C@H](O)C[C@@H]1CC[C@@H]1[C@@H]2CC[C@@]2(C)[C@H]1CC[C@@H]2[C@@](C)(O)c1ccncc1Cl: 6.00
C[C@]12CC[C@H](O)C[C@@H]1CC[C@@H]1[C@@H]2CC[C@@]2(C)[C@H]1CC[C@@H]2[C@@](C)(O)C1CCCCN1 (stereo not given in full): 6.00

Name the recorded pIC50 of Cn1c2nc3ccccc3c-2cc2ccc(Br)cc21 , assay system Trypanosoma cruzi.
4.49

Name the recorded pIC50 of O=C(/C=C/c1ccc2c(c1)OCO2)N1CCOCC1 , assay system Trypanosoma cruzi.
4.02

Name the recorded pIC50 of Cc1ccc2c(c1)cc1c3ccccc3nc-1n2C , assay system Trypanosoma cruzi.
5.40

Name the recorded pIC50 of Cn1c2nc3ccccc3c-2cc2ccc(C(F)(F)F)cc21 , assay system Trypanosoma cruzi.
4.49

Name the recorded pIC50 of O=C(/C=C/C=C/C=C/c1ccc2c(c1)OCO2)N1CCCCC1 , assay system Trypanosoma cruzi.
5.15

Name the recorded pIC50 of Fc1ccc2[nH]c3nc4ccccc4c-3cc2c1 , assay system Trypanosoma cruzi.
4.49

Name the recorded pIC50 of c1ccc(Oc2ccc(OCN3CC3)cc2)cc1 , assay system Trypanosoma cruzi.
4.38

Name the recorded pIC50 of CSCCOc1ccc(Oc2ccccc2)cc1 , assay system Trypanosoma cruzi.
4.00

Name the recorded pIC50 of c1ccc(CSCCOc2ccc(Oc3ccccc3)cc2)cc1 , assay system Trypanosoma cruzi.
4.22

----------
System: Entamoeba histolytica
protocol.summary: Antimicrobial activity against Entamoeba histolytica
Assay type: functional, organism-based
property.label: IC50 (µM)
Kindly answer with a numeric value in µM, unit omitted.

Some entries whose results are on file:
O=P(O)(O)C(Nc1ccc2c(c1)CCC2)P(=O)(O)O: 200
O=P(O)(O)C(Nc1ccc(-c2ccccc2)cc1)P(=O)(O)O: 9
O=P(O)(O)C(O)(Cc1ccncc1)P(=O)(O)O: 200
O=P(O)(O)C(Nc1nccc2ccccc12)P(=O)(O)O: 200
CCCCCCc1ccc(NC(P(=O)(O)O)P(=O)(O)O)cc1: 36

Tell me its IC50 given O=P(O)(O)C(O)(CCCCNCCCCc1ccccc1)P(=O)(O)O as the entry.
21

Tell me its IC50 given O=P(O)(O)C(Nc1cccc(-c2ccccc2)c1)P(=O)(O)O as the entry.
7

Tell me its IC50 given O=P(O)(O)C(CNc1ccccn1)P(=O)(O)O as the entry.
200

Tell me its IC50 given CC(N)CC(O)(P(=O)(O)O)P(=O)(O)O (configuration not stated) as the entry.
200

Tell me its IC50 given O=P(O)(O)C(NC1CCC1)P(=O)(O)O as the entry.
200

Tell me its IC50 given O=P(O)(O)C(N1CCCCCC1)P(=O)(O)O as the entry.
200

Tell me its IC50 given CCCCCC(C)CNC(P(=O)(O)O)P(=O)(O)O (configuration not stated) as the entry.
65

----------
Test system: Toxoplasma gondii
protocol.summary: Antimicrobial activity against Toxoplasma gondii
Assay type: functional, organism-based
conditions.used: Toxoplasma gondii
The following molecules are shown together with reported pIC50 values.
Friendly reminder that pIC50 comes from taking -log10 of the concentration in mol/L.

Name the recorded pIC50 of NC12CC1CN(c1nc3c(cc1F)c(=O)c(C(=O)O)cn3-c1ccc(F)cc1F)C2 (configuration not stated) , assay system Toxoplasma gondii.
5.15

Name the recorded pIC50 of C[C@H]1[C@H](C)CC[C@]2(C(=O)O)CC[C@]3(C)C(=CC[C@@H]4[C@@]5(C)CC[C@H](O)C(C)(C)[C@@H]5CC[C@]43C)[C@H]12 , assay system Toxoplasma gondii.
6.00

Name the recorded pIC50 of c1ccc(Sc2cc3ccccc3[nH]2)cc1 , assay system Toxoplasma gondii.
6.00

Name the recorded pIC50 of COc1ccc(Sc2cc3ccccc3[nH]2)cc1 , assay system Toxoplasma gondii.
4.77

Name the recorded pIC50 of NC[C@@H]1[C@H]2CN(c3nc4c(cc3F)c(=O)c(C(=O)O)cn4-c3ccc(F)cc3F)C[C@@H]12 , assay system Toxoplasma gondii.
5.05

Name the recorded pIC50 of N[C@@H]1[C@H]2CN(c3nc4c(cc3F)c(=O)c(C(=O)O)cn4-c3ccc(F)cc3F)C[C@@H]12 (stereo in doubt; form 1) , assay system Toxoplasma gondii.
5.52

Name the recorded pIC50 of O=[N+]([O-])c1ccc(Sc2cc3ccccc3[nH]2)cc1 , assay system Toxoplasma gondii.
4.85

Name the recorded pIC50 of NC[C@@H]1[C@H]2CN(c3nc4c(cc3F)c(=O)c(C(=O)O)cn4C3CC3)C[C@@H]12 , assay system Toxoplasma gondii.
4.92

----------
Test system: Entamoeba histolytica
protocol.summary: Antimicrobial activity against Entamoeba histolytica
Type: functional, organism-based
The following compounds are shown together with reported pIC50 values.
Friendly reminder that pIC50 comes from taking -log10 of the concentration in mol/L.

O=P(O)(O)C(Nc1ncc(Br)cc1Br)P(=O)(O)O: 4.54

Name the recorded pIC50 of NCCCC(O)(P(=O)(O)O)P(=O)(O)O , assay system Entamoeba histolytica.
3.70

Name the recorded pIC50 of CCCCCNC(P(=O)(O)O)P(=O)(O)O , assay system Entamoeba histolytica.
3.70

Name the recorded pIC50 of O=P(O)(O)C(Nc1ccc(Br)cn1)P(=O)(O)O , assay system Entamoeba histolytica.
4.36

----------
Test system: Trypanosoma cruzi
protocol.summary: Antimicrobial activity against Trypanosoma cruzi
Type: functional, organism-based
conditions.used: Trypanosoma cruzi
Field: label. Allowed values: true (1) (IC50 < 20 µM) or false (0) (IC50 >= 20 µM).

C[C@]12CC[C@H](O)C[C@@H]1CC[C@@H]1[C@@H]2CC[C@@]2(C)[C@H]1CC[C@@H]2[C@@](C)(O)c1cccnc1: false (0)
O=C(CCCCc1ccc2c(c1)OCO2)N1CCCCC1 [TETRAHYDROPIPERINE]: true (1)
O=C(/C=C/C=C/c1ccc2c(c1)OCO2)NCC1CCCCC1: false (0)
COc1ccc(CCNC(=O)/C=C/C=C/c2ccc3c(c2)OCO3)cc1OC: false (0)
COc1ccc2cc3c4ccccc4nc-3n(C)c2c1: true (1)
O=C(/C=C/c1ccc2c(c1)OCO2)N1CCCCC1 [ILEPCIMIDE]: false (0)
O=C=NCCOc1ccc(Oc2ccccc2)cc1: false (0)
N#CSCCOc1ccc([S+]([O-])c2ccccc2)cc1 (centres undefined): true (1)

Regarding O=C(O)/C=C/C=C/c1ccc2c(c1)OCO2 , kindly confirm whether its IC50 is beneath 20 µM.
false (0)

Regarding C[C@]12CC[C@H](O)C[C@@H]1CC[C@@H]1[C@@H]2CC[C@@]2(C)[C@H]1CC[C@@H]2[C@@](C)(O)c1ccccn1 , kindly confirm whether its IC50 is beneath 20 µM.
true (1)

Regarding Cn1c2nc3ccccc3c-2cc2ccc(Cl)cc21 , kindly confirm whether its IC50 is beneath 20 µM.
true (1)

Regarding Cn1c2nc3ccc(C#N)cc3c-2cc2cc(C(F)(F)F)ccc21 , kindly confirm whether its IC50 is beneath 20 µM.
false (0)

Regarding C(/C=C/c1ccc2c(c1)OCO2)=C\CN1CCCCC1 , kindly confirm whether its IC50 is beneath 20 µM.
true (1)

Regarding C[S+]([O-])CCCCN=C=S (centres undefined) , kindly confirm whether its IC50 is beneath 20 µM.
false (0)
